# measurementDescription: Adipose tissue and serum concentration after subcutaneous infusion with transcutaneous ultrasound, elective abdominoplasty
# setupConditions: human, in vivo, 1 gm
readoutKind: Kp

compound	readoutKind	valueObserved
Cc1nnc(SCC2=C(C(=O)O)N3C(=O)[C@@H](NC(=O)Cn4cnnn4)[C@H]3SC2)s1 [Cefazolin]	Kp	< 10

Values compiled from patent US10099045B2.
